Data origin, for the record: patent US9566312B2

- System: peripheral blood mononuclear cells (PBMC)
- method_description: Anti-proliferative or immunosuppressive activity, BrdU incorporation in PHA-stimulated PBMC
- Type: cell-based
- experimental_setup: PHA 3 μg/ml, 60 hour compound treatment; read-out: EMV PBMC IC50
Starred links: 1 amine or outer side, 2 acyl side, 3 side chain; linkers in the order of their positions; H or OH if unused. Non-standard residues stand in square brackets, D forms with d. Residues, ends and D or L forms follow the SMILES beside them. X72 = C[C@H](CCN1CCN(C2CCC2)CC1)[C@@H](C(=O)[*:2])N(C)[*:1]; X22 = C[C@H](CN1CCN(C2CCC2)CC1)[C@@H](C(=O)[*:2])N(C)[*:1]; X51 = C[C@H](CN1CCC2(COC2)C1)[C@@H](C(=O)[*:2])N(C)[*:1]; NMe(dihydroBmt) = CCCC[C@@H](C)[C@@H](O)[C@H](NC)C(=O)O; X14 = C[C@H](CN1CCN(C)CC1)[C@@H](C(=O)[*:2])N(C)[*:1]; MeBmt = C/C=C/C[C@@H](C)[C@@H](O)[C@H](NC)C(=O)O; NMeL = CN[C@@H](CC(C)C)C(=O)O; NMeV = CN[C@H](C(=O)O)C(C)C; dNMeA = CN[C@H](C)C(=O)O; Abu = CC[C@H](N)C(=O)O
Each item that follows carries a reported pIC50.
The meaning of pIC50 here: minus log10 of the concentration in molar units.

Would you please look over these solved cases?
C/C=C/C[C@@H](C)[C@@H](O)[C@H]1C(=O)N[C@@H](CC)C(=O)N(C)[C@H](C)C(=O)N(C)[C@@H]([C@H](C)CN2CCN(C)CC2)C(=O)N[C@@H](C(C)C)C(=O)N(C)[C@@H](CC(C)C)C(=O)N[C@@H](C)C(=O)N[C@H](C)C(=O)N(C)[C@@H](CC(C)C)C(=O)N(C)[C@@H](CC(C)C)C(=O)N(C)[C@@H](C(C)C)C(=O)N1C [Compound 2.5.29] (cyclo(A[dA][NMeL][NMeL][NMeV][MeBmt][Abu][dNMeA][X14]V[NMeL]))    4.91
C/C=C/C[C@@H](C)[C@@H](O)[C@H]1C(=O)N[C@@H](CC)C(=O)N(C)[C@H](C)C(=O)N(C)[C@@H]([C@H](C)CN2CCC3(COC3)C2)C(=O)N[C@@H](C(C)C)C(=O)N(C)[C@@H](CC(C)C)C(=O)N[C@@H](C)C(=O)N[C@H](C)C(=O)N(C)[C@@H](CC(C)C)C(=O)N(C)[C@@H](CC(C)C)C(=O)N(C)[C@@H](C(C)C)C(=O)N1C [Compound 2.5.33] (cyclo(A[dA][NMeL][NMeL][NMeV][MeBmt][Abu][dNMeA][X51]V[NMeL]))    4.99
C/C=C/C[C@@H](C)[C@@H](O)[C@H]1C(=O)N[C@@H](CC)C(=O)N(C)[C@H](C)C(=O)N(C)[C@@H]([C@H](C)CCN2CCN(C3CCC3)CC2)C(=O)N[C@@H](C(C)C)C(=O)N(C)[C@@H](CC(C)C)C(=O)N[C@@H](C)C(=O)N[C@H](C)C(=O)N(C)[C@@H](CC(C)C)C(=O)N(C)[C@@H](CC(C)C)C(=O)N(C)[C@@H](C(C)C)C(=O)N1C [Compound 2.18.10] (cyclo(A[dA][NMeL][NMeL][NMeV][MeBmt][Abu][dNMeA][X72]V[NMeL]))    5.80

Next, consider the following molecule.
Record summary for CCCC[C@@H](C)[C@@H](O)[C@H]1C(=O)N[C@@H](CC)C(=O)N(C)[C@H](C)C(=O)N(C)[C@@H]([C@H](C)CN2CCN(C3CCC3)CC2)C(=O)N[C@@H](C(C)C)C(=O)N(C)[C@@H](CC(C)C)C(=O)N[C@@H](C)C(=O)N[C@H](C)C(=O)N(C)[C@@H](CC(C)C)C(=O)N(C)[C@@H](CC(C)C)C(=O)N(C)[C@@H](C(C)C)C(=O)N1C [Compound 2.5.15] (cyclo([NMe(dihydroBmt)][Abu][dNMeA][X22]V[NMeL]A[dA][NMeL][NMeL][NMeV])) : reported pIC50 = 5.12
